- Assay System: Human immunodeficiency virus type 1 reverse transcriptase (Human immunodeficiency virus 1, UniProt Q72547, L100I)
- Protocol Description: Inhibition of HIV1 RT L100I mutant
IC50 for assorted molecules
# output: number + unit

Example entries and their recorded answers appear below.
- Molecule: "CCOc1cccc(C2(CC)Oc3ccccc3-n3cccc3C2=O)c1 (racemic)"
  IC50: "0.2 µmol"
- Molecule: "CCC1(c2cccc(C)c2)Oc2ccccc2-n2cccc2C1=O (racemic)"
  IC50: "0.1 µmol"
- Molecule: "CCC1(c2ccc(COc3cccc(Cl)c3)cc2)Oc2ccccc2-n2cccc2C1=O (racemic)"
  IC50: "0.25 µmol"
- Molecule: "CCC1(c2ccc(I)cc2)Oc2ccccc2-n2cccc2C1=O (racemic)"
  IC50: "1.8 µmol"

# evaluate next
I am curious: what IC50 value has been reported for CCC1(c2ccc(COc3ccccc3C(C)=O)cc2)Oc2ccccc2-n2cccc2C1=O (racemic) ?
2 µmol

====

- Assay System: Human immunodeficiency virus type 1 reverse transcriptase (Human immunodeficiency virus 1, UniProt Q72547, Y181I)
- Protocol Description: Inhibition of HIV1 RT Y181I mutant
IC50 for assorted compounds

Example entries and their recorded answers appear below.
- Compound: "CCC1(c2ccc(COc3cccnc3)cc2)Oc2ccccc2-n2cccc2C1=O (racemic)"
  IC50: "40 µmol"
- Compound: "CCC1(c2ccc(Cn3ccsc3=N)cc2)Oc2ccccc2-n2cccc2C1=O (racemic)"
  IC50: "> 10 µmol"
- Compound: "CCC1(c2cccc(N)c2)Oc2ccccc2-n2cccc2C1=O (racemic)"
  IC50: "> 10 µmol"
- Compound: "C=C(C)CCOCc1ccc(C2(CC)Oc3ccccc3-n3cccc3C2=O)cc1 (racemic)"
  IC50: "> 10 µmol"

I am curious: what IC50 value has been reported for CCC1(c2cccc(Cl)c2)Cc2ccccc2-n2cccc2C1=O (racemic) ?
> 10 µmol

Now the same for CCC1(c2ccc(COc3ccccc3C(C)=O)cc2)Oc2ccccc2-n2cccc2C1=O (racemic)
18 µmol

Now the same for CCC1(c2cccc(OC)c2)Oc2ccccc2-n2cccc2C1=O (racemic)
> 10 µmol

====

- System: Human immunodeficiency virus 1
- Protocol Description: Inhibition of HIV1-3B replication in C8166 cells
- Format: functional, organism-based
- Experimental Conditions: Human immunodeficiency virus 1, 3B
EC50 for assorted compounds
Write it as a number; the unit nM goes unstated.

- Compound: "CCC1(c2ccc(COc3ccccc3)cc2)Oc2ccccc2-n2cccc2C1=O (racemic)"
  Measurement Unit: "nM"
  EC50: 83

I am curious: what EC50 value has been reported for Cc1cn([C@H]2C[C@H](N=[N+]=[N-])[C@@H](CO)O2)c(=O)[nH]c1=O [ZIDOVUDINE] ?
1.9

Now the same for CCC1(c2cccc(I)c2)Oc2ccccc2-n2cccc2C1=O (racemic)
1300

Now the same for CCC1(c2ccc(COc3cccc(Cl)c3)cc2)Oc2ccccc2-n2cccc2C1=O (racemic)
480

Now the same for CCC1(c2ccc(COc3cccnc3)cc2)Oc2ccccc2-n2cccc2C1=O (racemic)
180

Now the same for CCC1(c2ccc(CNc3ccccc3)cc2)Oc2ccccc2-n2cccc2C1=O (racemic)
750

====

- Assay System: Human immunodeficiency virus type 1 reverse transcriptase (Human immunodeficiency virus 1, UniProt Q72547, V106A)
- Protocol Description: Inhibition of HIV1 RT V106A mutant
Assay Endpoint: IC50 (µmol)
Write it as a number; the unit µmol goes unstated.

Example entries and their recorded answers appear below.
- Molecule: "CCC1(c2ccc(COc3ccccc3C(C)=O)cc2)Oc2ccccc2-n2cccc2C1=O (racemic)"
  Val: 5.5
- Molecule: "CCC1(c2ccc(COc3cccnc3)cc2)Oc2ccccc2-n2cccc2C1=O (racemic)"
  Val: 2.5
- Molecule: "CCC1(c2ccc(CNc3ccccc3)cc2)Oc2ccccc2-n2cccc2C1=O (racemic)"
  Val: 1.2
- Molecule: "CCC1(c2cccc(Cl)c2)Cc2ccccc2-n2cccc2C1=O (racemic)"
  Val: 10
- Molecule: "CCC1(c2cccc(C)c2)Oc2ccccc2-n2cccc2C1=O (racemic)"
  Val: 0.25
- Molecule: "CCOc1cccc(C2(CC)Oc3ccccc3-n3cccc3C2=O)c1 (racemic)"
  Val: 4.8
- Molecule: "CCC1(c2ccc(COc3ccccc3)cc2)Oc2ccccc2-n2cccc2C1=O (racemic)"
  Val: 0.8

# evaluate next
I am curious: what IC50 value has been reported for CCC1(c2cccc(N)c2)Oc2ccccc2-n2cccc2C1=O (racemic) ?
1.6
